# Species: Rattus norvegicus
# protocol text: DrugMatrix - Regimen: Daily Repeat
# Assay type: toxicity, organism-based, Sprague-Dawley
# Design: regimen Daily Repeat, gender Male, age 6-8 weeks
# settings: in vivo, iv, 0 mg/kg, 72 h, tissue Plasma, dose level Control, time 3 day, vehicle 100 % SALINE
Entries and their measured URIC ACID follow.
Please give a number only; it is taken to be in mg/dL.

// solved cases for URIC ACID follow
# compound, URIC ACID, mg/dL
records = [
    ("C[N+](C)(C)CCOC(=O)CCC(=O)OCC[N+](C)(C)C.[Cl-].[Cl-] [SUCCINYLCHOLINE CHLORIDE]", 1.6),
    ("N=C(N)c1ccc(OCCCCCOc2ccc(C(=N)N)cc2)cc1 [PENTAMIDINE]", 1.6),
    ("O=C(O)P(=O)(O)O [FOSCARNET]", 1.23),
    ("O=c1[nH]c(=O)n([C@H]2C[C@H](O)[C@@H](CO)O2)cc1F [FLOXURIDINE]", 1.43),
]

Next compound, URIC ACID to be filled in.
The compound listed as COc1cccc2c1C(=O)c1c(O)c3c(c(O)c1C2=O)C[C@@](O)(C(C)=O)C[C@@H]3O[C@H]1C[C@H](N)[C@H](O)[C@H](C)O1 [DAUNORUBICIN] shows URIC ACID equal to 1.55

----------
# Species on record: Rattus norvegicus
# protocol text: DrugMatrix - Regimen: Daily Repeat
# Format: toxicity, organism-based, Sprague-Dawley
# Parameters: regimen Daily Repeat, gender Male, age 6-8 weeks
# settings: in vivo, po, 0 mg/kg, 120 h, tissue Plasma, route oral GAVAGE, dose level Control, time 5 day, […]
// reported POTASSIUM per item
A number alone suffices; assume MEQ/L.

Illustrative cases are given below, each with its answer.
# molecule, POTASSIUM / MEQ/L
rows = [
    ("CC(=O)Oc1ccccc1C(=O)O", 5.34),
    ("CCCCC(=O)N(Cc1ccc(-c2ccccc2-c2nnn[nH]2)cc1)[C@H](C(=O)O)C(C)C", 5.46),
]

Per the records, this molecule ( c1ccoc1 ) has POTASSIUM equal to 6.52

----------
# Organism: Rattus norvegicus
# protocol text: DrugMatrix - Regimen: Daily Repeat
# Format: toxicity, organism-based, Sprague-Dawley
# Set-up: regimen Daily Repeat, gender Male, age 6-8 weeks
# settings: in vivo, po, 0 mg/kg, 120 h, tissue Blood, route oral GAVAGE, dose level Control, time 5 day, vehicle .5 % CMC
Property: LEUKOCYTE COUNT; scope: individual compounds
Write down the numeric answer in x10E3/uL and omit the unit.

# count of solved cases: 6
# compound, test readout, unit spec, recorded result
rows = [
    ("COc1ccccc1[N+](=O)[O-] [2-NITROANISOLE]", "LEUKOCYTE COUNT", "x10E3/uL", 9.7),
    ("CCC1=C(C)CN(C(=O)NCCc2ccc(S(=O)(=O)NC(=O)N[C@H]3CC[C@H](C)CC3)cc2)C1=O [GLIMEPIRIDE]", "LEUKOCYTE COUNT", "x10E3/uL", 15.03),
    ("C[C@@](Cc1ccc(O)c(O)c1)(NN)C(=O)O.O [CARBIDOPA]", "LEUKOCYTE COUNT", "x10E3/uL", 17.67),
    ("CCn1cc(C(=O)O)c(=O)c2cc(F)c(N3CCNC(C)C3)c(F)c21 (stereo not drawn) [LOMEFLOXACIN]", "LEUKOCYTE COUNT", "x10E3/uL", 11.06),
    ("COc1cc(OC)c(C(=O)CCCN2CCCC2)c(OC)c1 [BUFLOMEDIL]", "LEUKOCYTE COUNT", "x10E3/uL", 14.93),
    ("CCOc1nc2cccc(C(=O)O)c2n1Cc1ccc(-c2ccccc2-c2nnn[nH]2)cc1", "LEUKOCYTE COUNT", "x10E3/uL", 13.02),
]

Summary for this compound, CN(C)CCN(Cc1cccs1)c1ccccn1 : LEUKOCYTE COUNT is 16.58

Data point: C[C@@H]1O[C@@H](O[C@H]2C[C@@H](O)[C@]3(CO)[C@H]4[C@H](O)C[C@]5(C)[C@@H](C6=CC(=O)OC6)CC[C@]5(O)[C@@H]4CC[C@]3(O)C2)[C@H](O)[C@H](O)[C@H]1O [OUABAIN] ; LEUKOCYTE COUNT = 10.73

Source: ChEMBL document CHEMBL3885881
